Sourced from the supplement of paper PMC12764529

- Test summary: folding stability dG unfold from trypsin proteolysis; higher = more stable
Property name: folding stability dG unfold (kcal/mol)
The answer is to be given in kcal/mol; state only the numeric part.

Use these answered entries as a reference point.
- Seq string: "SAGGMKTYEYELELEGGGRLRIKITEDPNNPVYTVTFYSPEGKKLKTITIPANSIEEALKEAIELLKSAGGS [r16_158_JUSTAS]"
  Property name: "folding stability dG unfold"
  Numeric result: 4.6
- Seq string: "SAGGSAGGDEKAKEELKKKKPPKIELTVKVEVEVSEDGTVKVKAKVFGPDGKLIAEAEFTFKVKSAGGSAGG [r6_419_TrROS_Hall]"
  Property name: "folding stability dG unfold"
  Numeric result: 1.67
- Seq string: "SAGGSAGGSDPTPVVVEFPFSSEEEAEKKAKEAAEKLKAEGVDIKEVKIEYDPEKGTVTLTLGSAGGSAGGS [r20_155_JUSTAS]"
  Property name: "folding stability dG unfold"
  Numeric result: 1.36
- Seq string: "SAAPVRVEVEYDPERGVLRVRLYIPATSPEEARELVERFFAALGAEARITENPETGTFVVEVDIRLPPASAG [r14_424_TrMRF]"
  Property name: "folding stability dG unfold"
  Numeric result: 4.09
- Seq string: "SAGMKIKVEVKETGETYEIEISEEELKKKLKEKFPEVKEITVVVEDPEDMSEEELREKALKAAEELLKSAGG [r19_298_TrROS_Hall]"
  Property name: "folding stability dG unfold"
  Numeric result: 1.59

Query: Please look up its folding stability dG unfold: SAGGKEKKPKVELKITSISEFEGGLVIEGEATTPTKKIKVLAVYDPSTGKITVWRETPEGIEPLAEFGSAGG [r13_445_TrMRF]
Result: 1.76

Query: Same lookup for SAGGSAGGMPLLALSYPVLKDGKLYRVLFLYSPDGTFLGPFYVSADLTEDIPPDTVVLVHPDALSAGGSAGG [r6_33_TrMRF] , please.
Result: 3.24
